Cited source for all entries: ChEMBL document CHEMBL4622986

# Test system: Hepatitis C virus
# Method: Antiviral activity against HCV con1 subgenomic replicon infected in human HuH7 cells assessed as reduction in viral RNA level by qRT-PCR analysis
# Format: functional, organism-based, Hepacivirus hominis
# Assay conditions: isolate Con1, Huh-7
pEC50: −log10 of the molar value.
Measured quantity: pEC50

Answered examples (3):
| Molecule | Measured |
| --- | --- |
| CCOc1nc(N)nc2c1ncn2[C@@H]1O[C@](F)(COP(=O)(N[C@@H](C)C(=O)OC(C)C)Oc2cccc3ccccc23)[C@@H](O)[C@@]1(C)F (stereo partly specified) | 7.70 |
| CCOc1nc(N)nc2c1ncn2[C@@H]1O[C@]2(F)COP(=O)(OCC)O[C@H]2[C@@]1(C)F (stereo partly specified) | 6.51 |
| CCOc1nc(N)nc2c1ncn2[C@@H]1O[C@](F)(CO[P@](=O)(N[C@@H](C)C(=O)OC(C)C)Oc2ccccc2)[C@@H](O)[C@@]1(C)F | 7.24 |

[A] CCOc1nc(N)nc2c1ncn2[C@@H]1O[C@](F)(COP(=O)(N[C@@H](C)C(=O)OCC(C)C)Oc2cccc3ccccc23)[C@@H](O)[C@@]1(C)F (stereo partly specified)
[B] CCOc1nc(N)nc2c1ncn2[C@@H]1O[C@](F)(COP(=O)(N[C@@H](C)C(=O)OC(CC)CC)Oc2ccccc2)[C@@H](O)[C@@]1(C)F (stereo partly specified)
[C] CCOc1nc(N)nc2c1ncn2[C@@H]1O[C@](F)(COP(=O)(N[C@@H](C)C(=O)OC2CCCC2)Oc2ccccc2)[C@@H](O)[C@@]1(C)F (stereo partly specified)
Put the molecules in ascending order of pEC50. Give the labels in the order requested. B, C, A
